Values compiled from patent US10662146B2.

Test: Single dose oral PK study in male Sprague Dawley rats (plasma by LC-MS/MS)
Type: in vivo
Conditions: male, Sprague Dawley, rat, in vivo, po, 5 mg/kg, single oral dose 5 mg/kg body weight, mean of N=3 (Table 39.24); read-out: AUCinf
value.type: AUC(0-inf) (ng·h/mL)

[[record]]
compound = "CCN[C@H]1[C@H]2CC[C@H](C2)[C@@H]1c1ccccc1 [PRX-002 (+) Isomer, reference compound]"
value_type = "AUC(0-inf)"
numeric_result = 151


* * *

Assay: Single dose intravenous PK study in male Sprague Dawley rats (plasma by LC-MS/MS)
Format: in vivo
Conditions: male, Sprague Dawley, rat, plasma, iv, 2 mg/kg, PRX-002 (−) Isomer IV 2 mg/kg, mean; read-out: T1/2 of PRX-002 (−) Isomer (converted)
value.type: half-life (h)

[[record]]
compound = "CCN[C@@H]1[C@@H]2CC[C@@H](C2)[C@H]1c1ccccc1 [PRX-002 (−) Isomer, reference compound]"
unit_label = "h"
numeric_result = 1.51


* * *

Test: Single dose oral PK study in male Sprague Dawley rats (plasma by LC-MS/MS)
Type: in vivo
Details: male, Sprague-Dawley, rat, in vivo; PRX-P6-011 oral 5 mg/kg b.w., 0.25 h, mean; read-out: Plasma concentrations of PRX-P6-011
value.type: concentration at 0.25 h (ng/mL)

[[record]]
compound = "CCN(C(=O)[C@@H](NC(=O)[C@@H](N)C(C)C)C(C)C)C1C2CCC(C2)C1c1ccccc1 (single isomer, unassigned)"
unit_label = "ng/mL"
numeric_result = 62.8


* * *

Test: Single dose intravenous PK study in male Sprague Dawley rats (plasma by LC-MS/MS)
Format: in vivo
Conditions: male, Sprague-Dawley, rat, plasma, iv, 2 mg/kg, PRX-P5-006 IV 2 mg/kg, mean; read-out: T1/2 of PRX-P5-006 (converted)
Method: We describe here PK results of prodrugs of PRX-002 (−) or (+) isomers. All doses of prodrugs were administered such that they were equivalent to 5 mg/kg of PRX-002 (−) or (+) for oral studies and 2 mg/kg PRX-002 (−) or (+) for intravenous studies in male Sprague-Dawley (MSD) rats. Higher doses of up to 10 or 15 mg/kg [again equivalent to PRX-002 (−)] were used in some studies (as specified)]. […] The plasma concentrations of fencamfamine were measured by LC-MS/MS over time. […]
value.type: half-life (h)

[[record]]
compound = "CCCCCCCCCCCCCCCCCC(=O)OC(C)OC(=O)N(CC)C1C2CCC(C2)C1c1ccccc1 (single isomer, unassigned)"
value_type = "half-life"
numeric_result = 6.3


* * *

Assay: Single dose oral PK study in male Sprague Dawley rats (plasma by LC-MS/MS)
Assay type: in vivo
Details: male, Sprague Dawley, rat, in vivo; PRX-P4-003 oral 10 mg/kg, mean; read-out: Tmax of PRX-P4-003
value.type: Tmax (h)

[[record]]
molecule = "CCCCCCCCCCCCCCCCCC(=O)OCOC(=O)N(CC)C1C2CCC(C2)C1c1ccccc1 (single isomer, unassigned)"
numeric_result = 0


* * *

Experiment: Single dose intravenous PK study in male Sprague Dawley rats (plasma by LC-MS/MS)
Type: in vivo
Conditions: male, Sprague-Dawley, rat, plasma, iv, 2 mg/kg, PRX-P5-011 IV 2 mg/kg b.w., 0.25 h, mean
value.type: concentration at 0.25 h (ng/mL)

[[record]]
compound = "CCCCCCCCCCCCCCCCCC(=O)OC(C)OC(=O)N(CC)C1C2CCC(C2)C1c1ccccc1 (single isomer, unassigned)"
numeric_result = 58.5

